# Tested on: MCF7
# protocol.summary: cells
# Format: functional, cell-based
# settings: Homo sapiens, MCF7, 72 h
# Description: Cytotoxicity against human MCF7 cells assessed as inhibition of cell proliferation after 72 hrs by MTT assay
Quick list: log10(IC50) per entry.
measured.property: log10(IC50) (log10 of the value in nM)

>>> obs_value("CCSc1ccc2c(cc1=O)[C@@H](N)CCc1cc(OC)c(OC)c(OC)c1-2")
3.21
>>> obs_value("COc1cc2c(c(OC)c1OC)-c1ccc(SC(C)C)c(=O)cc1[C@@H](N)CC2")
3.69
>>> obs_value("CCCSc1ccc2c(cc1=O)[C@@H](N)CCc1cc(OC)c(OC)c(OC)c1-2")
3.32
>>> obs_value("CCCCSc1ccc2c(cc1=O)[C@@H](N)CCc1cc(OC)c(OC)c(OC)c1-2")
3.16
>>> obs_value("COc1cc2c(c(OC)c1OC)-c1ccc(OC)c(=O)cc1[C@@H](NC(C)=O)CC2")
1.61
